All values here come from patent US12448388B2.

experiment: PK data (IV/PO) in cynomolgus monkey; settings: in vivo, IV 0.5 mg/Kg
VALUE_TYPE: half-life (h)

I. C[C@H]1CN(C(=O)c2cc3c(cc2F)nc(N)c2cncn23)[C@H]2c3ccc(C(F)(F)F)cc3C[C@H]2O1 (single isomer, unassigned)
II. Nc1nc2cc(F)c(C(=O)N3CCC[C@@H]4Oc5cc(C(F)(F)F)ccc5[C@@H]43)cc2n2cncc12
Quick one: lower half-life, I or II ? Please indicate the selected item by its label.
II
(II: 11 h, I: 16 h)

###

tested on: HCT116 MTAP-deleted cell lines; assay: Cell viability assay (CellTiter-Glo, 7 days), HCT116 MTAP-deleted; type: cell-based; details: Homo sapiens, HCT-116; cell viability, HCT116 MTAP-deleted; class symbols; read-out: CC50
VALUE_TYPE: CC50

* C[C@@H]1C[C@@H]2Oc3cc(C(F)(F)F)ccc3[C@@H]2N(C(=O)c2cc3c(cn2)nc(N)c2cncn23)C1 [Ff-252] | < 100 nM
* CN(C(=O)c1cc2c(cc1F)nc(N)c1cncn12)[C@H]1c2ccc(C(F)(F)F)cc2[C@H]2C[C@H]21 [Ff-255] | 100 to 1000 nM
* C[C@H]1CN(C(=O)c2cc3c(cc2Cl)nc(N)c2cncn23)[C@@H](c2ccc(C(F)(F)F)cn2)CO1 [Ff-138] | < 100 nM
* CC(=O)N(C)N(Cc1ccc(C(F)(F)F)cc1F)C(=O)c1ccc2nc(N)c3c(C)nc(C)n3c2c1 [Fa-7] | 100 to 1000 nM
* CC1Oc2cc(C(F)(F)F)ccc2C1N(C)C(=O)c1cc2c(cc1F)nc(N)c1cncn12 (stereo not shown) [Ff-114] | < 100 nM

Value wanted: CC50 (HCT116 MTAP-deleted cell lines) of entry Cc1ncn2c1c(N)nc1cnc(C(=O)N3CCO[C@@H]4Cc5cc(OC(F)(F)F)c(F)cc5[C@@H]43)cc12 [Ff-180]
< 100 nM

Another compound to check: CS(=O)(=O)N1CCN(C(=O)c2cc3c(cc2F)nc(N)c2cncn23)C(c2ccc(C(F)(F)F)cn2)C1 (stereo not shown) [Ff-135]
100 to 1000 nM

###

# CC50 listing for each entry below
tested on: HCT116 MTAP-deleted cell lines; test: Cell viability assay (CellTiter-Glo, 7 days), HCT116 MTAP-deleted; type: cell-based; details: Homo sapiens, HCT-116; cell viability, HCT116 MTAP-deleted; class symbols; read-out: CC50

• Nc1nc2cc(F)c(C(=O)N3C[C@H](F)CC[C@@H]3c3ccc(C(F)(F)F)cn3)cc2n2cncc12 (single isomer, unassigned) [Ff-244] = < 100 nM
• C[C@@H]1CN(C(=O)c2cc3c(cc2F)nc(N)c2cncn23)[C@H]2c3ccc(-c4cnn(C(F)F)c4)c(F)c3C[C@H]2O1 [Ff-199] = < 100 nM
• Cc1ncn2c1c(N)nc1cc(Cl)c(C(=O)N3CCC[C@@H]4OCc5nc(C(F)(F)F)ccc5[C@@H]43)cc12 [Ff-360] = < 100 nM
• Nc1nc2cc(F)c(C(=O)N3CCO[C@H]4Cc5cc(Br)ccc5[C@H]43)cc2n2cncc12 (single isomer, unassigned) [Ff-75] = 100 to 1000 nM
• Nc1nc2ccc(C(=O)N(Cc3ccc(C(F)(F)F)cn3)N3CCOCC3)cc2n2cncc12 [Fb-2] = < 100 nM

Suppose we examine the molecule CN(C(=O)c1cc2c(cc1F)nc(N)c1cncn12)[C@@H]1COc2cc(-c3ccc(C(F)(F)F)cc3)ccc21 [Ff-230] ; what CC50 value has been reported?
100 to 1000 nM

And Nc1nc2cc(F)c(C(=O)N(Cc3ccc(C(F)(F)F)cc3F)c3ncco3)cc2n2cncc12 [Ff-226] ?
< 100 nM

Try CN(Cc1cccc2ccoc12)C(=O)c1ccc2nc(N)c3cncn3c2c1 [Ff-5] next.
> 1000 nM

Another molecule: Nc1nc2ccc(C(=O)N(Cc3ccc(OC(F)F)cc3F)C34CC(C3)C4)cc2n2cncc12 [Ff-264]
100 to 1000 nM

Can you check C[C@@H]1OC[C@@H](N(C)C(=O)c2ccc3nc(N)c4cncn4c3c2)c2ccc(C(F)(F)F)cc21 (racemic) [Ff-41] next?
< 100 nM

Repeat with Nc1nc2cc(F)c(C(=O)N3CCO[C@@H]4Cc5cc(C(F)F)c(F)cc5[C@@H]43)cc2n2cncc12 [Ff-168]
< 100 nM
